# System: SF-539 CNS
# Procedure summary: NCI tumour cell line growth inhibition, 48 h
Measured metric: TGI

Worked set:
Compound	TGI
Cc1csc2nc(-c3cccc([N+](=O)[O-])c3)c(/C=N/N=C(N)N)n12	4.71 µM
CC1(O)CC2C(CC1SC1CC3C(CC1(C)O)C3(C)C)C2(C)C (centres undefined)	> 100 µM
CCOc1ccccc1/C=N\N=C(N/N=C/c1ccccc1OCC)N/N=C/c1ccccc1OCC	> 100 µM
C[C@]12CC[C@H]3[C@@H](CC=C4C[C@@H](O)CC[C@@]43C)[C@@H]1C/C(=C\c1ccncc1)[C@@H]2O	45.9 µM
OCC1OC(N2C=C(c3nc4ccccc4s3)C3C=CC=CC32)C(O)C(O)C1O (centres undefined)	40.3 µM
COc1cccc(/C=N\NC(=O)c2ccncc2)c1O	> 100 µM

Q. Which TGI value is on record for Cc1cccc2c(N)c3cccc(C(=O)NCC[N+](C)(C)Cc4ccccc4[N+](=O)[O-])c3nc12 ?
A. > 32.5 µM

Q. # repeat for COC(=O)CN(CC(=O)NCCNC(=O)OC(C)(C)C)C1CCCCC1N(CC(=O)OC)CC(=O)OC (centres undefined)
A. > 100 µM

Q. How about COc1cc(CSc2nc3ccc(Cl)cc3c(=O)n2Cc2ccccc2)cc(OC)c1OC ?
A. 9.34 µM
